# System: U-251
# MEASUREMENT_PROTOCOL: NCI tumour cell line growth inhibition, 48 h
Active and inactive are the calls of the source. Rule as the data show it: active = GI50 up to about 1.1 µM and inactive = higher.
Respond using exactly one of the listed classes: YES for active, NO for inactive

[
  {
    "COMPOUND": "COc1ccc2[nH]c3c(cnn4cnnc34)c2c1",
    "LABEL": "NO"
  },
  {
    "COMPOUND": "N=C(N)NCCCC(NC(=O)c1cccc2c(=O)c3ccccc3[nH]c12)C(=O)O (stereo not drawn)",
    "LABEL": "NO"
  },
  {
    "COMPOUND": "CC(/C=C/C(=O)c1sc(C(N)=S)nc1C)=C\\c1ccccc1",
    "LABEL": "NO"
  }
]

# lookup: test call for N=C(N)C(/N=N\c1ccccc1)C(=N)N (stereo not drawn)
NO

Input `C=C(C)[C@@H]1CCC2=C[C@H](CC(C)=CC3=CC(C)=C(O3)[C@@H]1OC)OC2=O`
NO

Lookup `COc1ccc(CCNC(=O)[C@H]2CCCC[C@@H]2CCO)cc1OC`
NO

And the next one, CCOC(=O)C1=C(C(=O)OCC)C2(c3ccccc3)N(O1)c1ccccc1C2(C)C (stereo not drawn) ?
NO

Another: `CC(=O)C(C(=O)C(C)(C)C)C(=O)C(C)(C)C`
NO

`COC(=O)C12CC3CC(CC(C(=O)O)(C3)C1)C2` ?
NO

Same for CC(NS(C)(=O)=O)c1ccccc1 (stereo not drawn)
NO

* * *

# Tested on: RXF 393
# MEASUREMENT_PROTOCOL: NCI tumour cell line growth inhibition, 48 h
Activity calls are given as the source filed them. Cut-off read from the data, not from the text of the source: active = GI50 up to about 1.1 µM and inactive = higher.
PROPERTY_NAME: GI50

[
  {
    "COMPOUND": "CCCCCCCCCCCCC(=O)OC(c1cnco1)c1nc(C(O)CC(O)C(O)C(C)O)co1 (stereo unspecified)",
    "PROPERTY_NAME": "GI50",
    "RESULT": "1.38 µM (inactive)"
  },
  {
    "COMPOUND": "COc1ccc(/C=C/c2cc(OC)cc(OC)c2)cc1",
    "PROPERTY_NAME": "GI50",
    "RESULT": "3.05 µM (inactive)"
  },
  {
    "COMPOUND": "c1ccc2nn(C3CCCCO3)nc2c1 (stereo unspecified)",
    "PROPERTY_NAME": "GI50",
    "RESULT": "> 100 µM (inactive)"
  },
  {
    "COMPOUND": "COc1cccc2c1C(=O)c1c(O)c3c(c(O)c1C2=O)C[C@@](O)(C(C)=O)CC3OC1CC(OC2CC(N)C(O)C(C)O2)C(O)C(C)O1 (stereo partly specified)",
    "PROPERTY_NAME": "GI50",
    "RESULT": "83 µM (inactive)"
  },
  {
    "COMPOUND": "O=C(O)c1ccc([C@@H]2C(=O)N(O)[C@@H]3C=CC[C@@H]32)cc1",
    "PROPERTY_NAME": "GI50",
    "RESULT": "> 100 µM (inactive)"
  }
]

Would you kindly share the measured GI50 for O=C1C2c3[nH]c4ccccc4c3C3CCC(c4ccccc4)CC3C2C(=O)N1c1ccccc1 (stereo unspecified) ?
> 100 µM (inactive)

Same again, this time with `N=C(N)N/N=C/c1ccc(O)c(C(=O)O)c1`
> 100 µM (inactive)

Repeat with COc1ccc2c(c1)O[C@@H]1C(O)Oc3cc(OC)c(OC)cc3[C@]1(O)C2=O (stereo partly specified)
> 100 µM (inactive)

Next compound: `Nc1cccc(Nc2nc3ccccc3nc2NS(=O)(=O)c2ccccc2)c1`
18.3 µM (inactive)

Next entry: COC1=C(C)C(=O)C2=C(C1=O)C1C3CC4=C(C(=O)C(OC)=C(C)C4=O)C(CNC(=O)C(C)O)N3C(C#N)C(C2)N1C (stereo unspecified)
< 0.0121 µM (active)

Another: COc1nc(NC2OC(COC(C)=O)C(OC(C)=O)C(OC(C)=O)C2OC(C)=O)c2c(OC(C)=O)c(C)c(=O)oc2n1 (stereo unspecified)
> 100 µM (inactive)

Reference source for all entries: ChEMBL document CHEMBL1201862
